System: SNB-19 CNS
METHOD_SUMMARY: NCI tumour cell line growth inhibition, 48 h
# TGI values compiled below

Cn1cc(-c2nc(N[C@@H]3CCCC[C@@H]3N)c(F)c3c2C(=O)NC3)cn1    > 100 µM
Cn1cc(C2=C(c3cn(CCCCC(=N)N)c4ccccc34)C(=O)NC2=O)c2ccccc21    > 25 µM

### Prompt Need TGI, item O=c1[nH]c2ccc([N+](=O)[O-])cc2nc1/C=C(\O)c1ccccc1
### Response 31.8 µM

### Prompt Need TGI, item CC(NC(=O)C(Cc1ccc(OC(=O)c2ccccc2)cc1)NC(=O)OC(C)(C)C)C(=O)NCC(=O)NC(Cc1ccccc1)C(=O)NN (configuration not stated)
### Response > 100 µM

### Prompt Need TGI, item NN/C(=N\S(=O)(=O)c1ccc(S(=O)(=O)c2ccccc2)s1)Nc1ccc(Cl)cc1
### Response > 100 µM

### Prompt Need TGI, item CC(N1CCOCC1)C(O)(c1ccccc1)c1ccccn1 (configuration not stated)
### Response > 100 µM

### Prompt Need TGI, item CC(=O)[C-](C(C)=O)c1ccccc1.CC(=O)[C-](C(C)=O)c1ccccc1.CC(=O)[C-](C(C)=O)c1ccccc1.[Cl-].[Zr+4]
### Response > 100 µM

### Prompt Need TGI, item N#C/C(=C\c1ccc2[nH]ccc2c1)C(=O)c1ccc(O)c(O)c1
### Response > 100 µM

### Prompt Need TGI, item C[C@H](CCC(=O)NCC(=O)O)[C@H]1CC[C@H]2[C@@H]3[C@H](O)C[C@@H]4C[C@H](O)CC[C@]4(C)[C@H]3CC[C@]12C
### Response > 100 µM

### Prompt Need TGI, item COC(=O)C(NC(=O)OC(C)(C)C)P(=O)(OC)OC (configuration not stated)
### Response > 100 µM

====

# GI50 values compiled below
System: IGROV1 ovarian
METHOD_SUMMARY: NCI tumour cell line growth inhibition, 48 h

Cc1ccc(-c2n[nH]c(=O)c3noc(-c4ccc(C)cc4)c23)cc1    1.89 µM
CCCCCCCCCCSC(=N)N    2.85 µM
O=C(/C=C/c1cccc2ccccc12)Nc1ncc(Cc2ccccc2)s1    1.27 µM
Cc1c(Cl)cccc1NC(=O)c1sc2nc3c(cc2c1N)CCCC3    0.82 µM

Read the next record carefully.
### Prompt Need GI50, item C/C(=N/O)c1ccc(Nc2cc(-n3ccnc3)c3ccccc3n2)cc1
### Response 15.1 µM

====

# TGI values compiled below
System: OVCAR-8 ovarian
METHOD_SUMMARY: NCI tumour cell line growth inhibition, 48 h

Examples from the recorded data:
Cc1ccc(/C=C2\N=C(N3CCCC(CO)C3)NC2=O)cc1 (stereo not drawn)    > 100 µM
COC(=O)c1cc(/C=C\c2cc(OC)ccc2OC)ccc1OC    > 100 µM

Read the next record carefully.
### Prompt Enter reported TGI observed with OVCAR-8 ovarian for O=c1c2ccccc2nc(-c2ccccc2)n1NC(=S)Nc1cccc(Cl)c1
### Response > 100 µM

====

Test system: MOLT-4 leukemia
METHOD_SUMMARY: NCI tumour cell line growth inhibition, 48 h
# TGI values compiled below

CCOC(=O)CC(NC(=O)c1ccc(N=NN(C)C)cc1)C(=O)OCC (centres undefined)    > 100 µM
COc1cc(-c2cc(=O)c3c(O)c(OC)c(OC)c(OC)c3o2)cc(OC)c1OC    > 100 µM
Cc1csc(-n2c(C)nc3cc(Cl)ccc3c2=O)n1    > 100 µM
COCCN1C(=O)C2c3[nH]c4ccccc4c3C3CCC(C(C)(C)C)CC3C2C1=O (centres undefined)    > 10 µM
CCOC(=O)c1c(C)n(Cc2ccccc2)c2c1cc1oc(=O)c(=O)n3cnc2c13    > 50 µM
O=C1CCC(=O)c2sccc2N1    > 100 µM
Cc1cc(Br)cc(C)c1NC(=O)C(=O)Nn1c(=S)[nH]c2ccccc2c1=O    > 100 µM
NC(=O)c1ccc(N(C(N)=O)c2c(F)cccc2F)nc1-c1ccc(F)cc1F    > 100 µM

Read the next record carefully.
### Prompt Need TGI, item CN/N=C(\C(=O)Nc1ccc(C)c(C)c1)C(C(=O)OC)c1nc2ccc([N+](=O)[O-])cc2[nH]c1=O (centres undefined)
### Response > 100 µM
